Where do the numbers come from? From ChEMBL document CHEMBL1255236.

Assay: AUC (0 to 24 hrs) in Human immunodeficiency virus 1 infected human at 800 mg/kg, QD
Assay type: ADME, organism-based
Parameters: time < 24 hr, dose 800 mg/kg
Settings: plasma
measurement label: AUC at 24 h (ng·h/mL)
Numeric only. Scale: ng·h/mL

I am curious: what AUC at 24 h value has been reported for CCCCN1C(=O)[C@@H]([C@H](O)C2CCCCC2)NC(=O)C12CCN(Cc1ccc(Oc3ccc(C(=O)O)cc3)cc1)CC2 ? 5840

====

Assay: AUC (0 to 24 hrs) in Human immunodeficiency virus 1 infected human at 800 mg/kg, BID
Assay type: ADME, organism-based
Parameters: time < 24 hr, dose 800 mg/kg
Settings: plasma
measurement label: AUC at 24 h (ng·h/mL)
# unit: ng·h/mL | format: bare number

Name the reported AUC at 24 h value associated with the compound CCCCN1C(=O)[C@@H]([C@H](O)C2CCCCC2)NC(=O)C12CCN(Cc1ccc(Oc3ccc(C(=O)O)cc3)cc1)CC2 3410

====

Assay: AUC (0 to 24 hrs) in Human immunodeficiency virus 1 infected human at 600 mg/kg, BID
Type: ADME, organism-based
Parameters: time < 24 hr, dose 600 mg/kg
Details: plasma
measurement label: AUC at 24 h (ng·h/mL)
Express the result in ng·h/mL but write the number alone.

GET /values?readout=AUC at 24 h&item= CCCCN1C(=O)[C@@H]([C@H](O)C2CCCCC2)NC(=O)C12CCN(Cc1ccc(Oc3ccc(C(=O)O)cc3)cc1)CC2 2100

====

Assay: AUC (0 to 24 hrs) in Human immunodeficiency virus 1 infected human at 400 mg/kg, BID
Assay type: ADME, organism-based
Set-up: time < 24 hr, dose 400 mg/kg
Conditions: plasma
measurement label: AUC at 24 h (ng·h/mL)
All answers are understood in ng·h/mL, so give the number only.

I would be grateful if you could share the reported AUC at 24 h for CCCCN1C(=O)[C@@H]([C@H](O)C2CCCCC2)NC(=O)C12CCN(Cc1ccc(Oc3ccc(C(=O)O)cc3)cc1)CC2 [APLAVIROC] . 6060

====

Experiment: Half life in healthy human at 200 to 800 mg/kg, BID
Type: ADME, organism-based
Design: dose 200-800 mg/kg
Settings: in vivo
measurement label: half-life (h)
Reply with just the number (in h).

Recorded half-life for CCCCN1C(=O)[C@@H]([C@H](O)C2CCCCC2)NC(=O)C12CCN(Cc1ccc(Oc3ccc(C(=O)O)cc3)cc1)CC2 [APLAVIROC] , please? 3

====

Experiment: AUC (0 to 24 hrs) in Human immunodeficiency virus 1 infected human at 200 mg/kg, BID
Format: ADME, organism-based
Design: time < 24 hr, dose 200 mg/kg
Details: plasma
measurement label: AUC at 24 h (ng·h/mL)
Give the quantity in ng·h/mL, number only.

Can you look up the measured AUC at 24 h of CCCCN1C(=O)[C@@H]([C@H](O)C2CCCCC2)NC(=O)C12CCN(Cc1ccc(Oc3ccc(C(=O)O)cc3)cc1)CC2 for me? 2010
